System: Cotton
Assay: (II) surface spray, growth regulatory or herbicidal effects
Assay type: in vivo, Gossypium sp.
Conditions: II surface spray 1.4 kg/ha (line 3.25 ppm), 21 days, 100=complete suppression
// reported growth regulatory or herbicidal effect score per item
When you answer, write just the number.

Illustrative cases are given below, each with its answer.
[
  {
    "Structure": "CS(=O)(=O)N(CC(N)=S)c1ccc(Cl)c(Cl)c1",
    "System Tested": "Cotton",
    "Experimental Result": 0
  },
  {
    "Structure": "CCS(=O)(=O)N(CC(N)=S)c1ccc(Cl)c(Cl)c1",
    "System Tested": "Cotton",
    "Experimental Result": 0
  },
  {
    "Structure": "Cc1ccc(N(CC(N)=S)S(C)(=O)=O)cc1Cl",
    "System Tested": "Cotton",
    "Experimental Result": 0
  },
  {
    "Structure": "Cc1ccc(N(CC#N)S(C)(=O)=O)cc1Cl",
    "System Tested": "Cotton",
    "Experimental Result": 0
  }
]

Now let's try a different one.
Notebook: "CCS(=O)(=O)N(CC#N)c1ccc(Cl)c(Cl)c1" , growth regulatory or herbicidal effect score read as 0

###

Property: growth regulatory or herbicidal effect score; scope: individual compounds
Tested on: Barley
Experiment: (II) surface spray, growth regulatory or herbicidal effects
Type: in vivo, Hordeum vulgare
Details: II surface spray 2.8 kg/ha (line 6.5 ppm), 21 days, 100=complete suppression
Reply with just the number.

Some solved cases for reference:
[
  {
    "Compound": "CS(=O)(=O)N(CC(N)=S)c1ccc(Cl)c(Cl)c1 [Example 85]",
    "Experimental Result": 0
  },
  {
    "Compound": "CCS(=O)(=O)N(CC(N)=S)c1ccc(Cl)c(Cl)c1 [Example 156]",
    "Experimental Result": 0
  }
]

growth regulatory or herbicidal effect score reported for this compound CCS(=O)(=O)N(CC#N)c1ccc(Cl)c(Cl)c1 [Example 137] : 0

For Cc1ccc(N(CC#N)S(C)(=O)=O)cc1Cl [Example 131] the compound record lists growth regulatory or herbicidal effect score as 0

Noted for Cc1ccc(N(CC(N)=S)S(C)(=O)=O)cc1Cl [Example 150] : its growth regulatory or herbicidal effect score reads 0

###

Test system: Tomato
Assay: (II) surface spray, growth regulatory or herbicidal effects
Assay type: in vivo, Lycopersicon esculentum
Settings: II surface spray 2.8 kg/ha (line 6.5 ppm), 21 days, 100=complete suppression
Endpoint Name: growth regulatory or herbicidal effect score
Number only, please.

Known growth regulatory or herbicidal effect score results, listed for orientation:
[
  {
    "Structure": "Cc1ccc(N(CC#N)S(C)(=O)=O)cc1Cl",
    "System Tested": "Tomato",
    "Experimental Result": 0
  },
  {
    "Structure": "CCS(=O)(=O)N(CC(N)=S)c1ccc(Cl)c(Cl)c1",
    "System Tested": "Tomato",
    "Experimental Result": 0
  },
  {
    "Structure": "CS(=O)(=O)N(CC(N)=S)c1ccc(Cl)c(Cl)c1",
    "System Tested": "Tomato",
    "Experimental Result": 0
  },
  {
    "Structure": "Cc1ccc(N(CC(N)=S)S(C)(=O)=O)cc1Cl",
    "System Tested": "Tomato",
    "Experimental Result": 0
  }
]

Consider now this further molecule.
The reported Tomato growth regulatory or herbicidal effect score of "CCS(=O)(=O)N(CC#N)c1ccc(Cl)c(Cl)c1" is 0

Reference source: patent US4349378A
